Test: Solubility of compound 1 in the solvent under evaluation at 22° C. and 65° C. (crystallization study)
Format: physicochemical
Conditions: Diisopropylamine, 22 °C, organic solvent or mixture, thermodynamic from solid, solvent: Diisopropylamine; read-out: Solubility at 22° C.
Recorded metric: solubility

Enquiry: Report solubility for "Nc1ncc(-c2cc(N3C[C@@H]4C[C@H]3CO4)nc(N3CCC(F)(F)C3)n2)cc1OC(F)F" please.
Return: < 50 mg/mL

* * *

Assay: Solubility of compound 1 in the solvent under evaluation at 22° C. and 65° C. (crystallization study)
Assay type: physicochemical
Settings: 50% water in acetonitrile, 22 °C, aqueous with cosolvent or surfactant or cyclodextrin, thermodynamic from solid, solvent: 50% water in acetonitrile; read-out: Solubility at 22° C.
Recorded metric: solubility

Enquiry: Requested field: solubility. Item: "Nc1ncc(-c2cc(N3C[C@@H]4C[C@H]3CO4)nc(N3CCC(F)(F)C3)n2)cc1OC(F)F"
Return: < 50 mg/mL
